# Assay target: T1, recombinant human twin strep-tagged ROR2 extracellular domain (human, UniProt Q01974 34-403)
# T1 construct: extracellular domain; Made in HEK293T, Streptactin purified; also called Human ROR2-TwinStrep; human ROR2
# Test protocol: ELISA, IgG titrated on coated twin-strep human ROR2 ECD; fit printed as IC50
Answer each item with its documented IC50.
Answers are plain numbers, in µg/mL.

// query IC50 value for entry ERR2-302 (mAb004) (antibody, human IgG1, V domains shown, Full-length chimeric rabbit/human IgG1, human IgH-gamma1 and IgL-lambda constant regions; C-terminal tags HC: LPETG-Strep, LC: G5SLPETG-Strep) VH: QKQLVESGGGLVKPGGSLTLTCTVSGFSLSSYAIGWVRQAPGNGLEWIGIINSYGSTYYASWAKSRSTITRNTNLNTVTLKMTSLTAADTATYFCARSPYGYVSAWGYHRLDLWGQGTLVTISS VL: SYELTQLPSVSVSLGQTARITCGGASIGSKVVHWYQQKPGLAPGLLIYDDDERPSGVPDRFSGSNSGDTATLTISGAQAGDEAEYYCQLWDGSDVVFGGGTQLTVTG
0.102

Now let's try a different one.
// query IC50 value for entry ERR2-316 (mAb005) (antibody, human IgG1, V domains shown, Full-length chimeric rabbit/human IgG1, human IgH-gamma1 and IgL-kappa constant regions; C-terminal tags HC: LPETG-Strep, LC: G5SLPETG-Strep; also called mAb0005) VH: QKQLVESGGRLVTPGGSLTLTCTVSGFSLSKYGVSWVRQAPGSGLEYIGTIGGSGTSYYASWAKSRSTITRNTNLNTVTLKMTSLTAADTATYFCARYFGWNTGFDIWGPGTLVTISS VL: DPVMTQTPSSVSEPVGGTVTIKCQASQSISNALAWYQQKPGQPPKRLIYKASTPASGVPSRFKGSRSGTEYTLTISGVQREDAATYYCLGFSVVSNDGWAFGAGTNVEIK
0.0299

From: patent US20190031754A1
